- Measured on: Serine/threonine-protein kinase Nek1 (Homo sapiens) (UniProt Q96PY6)
- Sequence (whole entry): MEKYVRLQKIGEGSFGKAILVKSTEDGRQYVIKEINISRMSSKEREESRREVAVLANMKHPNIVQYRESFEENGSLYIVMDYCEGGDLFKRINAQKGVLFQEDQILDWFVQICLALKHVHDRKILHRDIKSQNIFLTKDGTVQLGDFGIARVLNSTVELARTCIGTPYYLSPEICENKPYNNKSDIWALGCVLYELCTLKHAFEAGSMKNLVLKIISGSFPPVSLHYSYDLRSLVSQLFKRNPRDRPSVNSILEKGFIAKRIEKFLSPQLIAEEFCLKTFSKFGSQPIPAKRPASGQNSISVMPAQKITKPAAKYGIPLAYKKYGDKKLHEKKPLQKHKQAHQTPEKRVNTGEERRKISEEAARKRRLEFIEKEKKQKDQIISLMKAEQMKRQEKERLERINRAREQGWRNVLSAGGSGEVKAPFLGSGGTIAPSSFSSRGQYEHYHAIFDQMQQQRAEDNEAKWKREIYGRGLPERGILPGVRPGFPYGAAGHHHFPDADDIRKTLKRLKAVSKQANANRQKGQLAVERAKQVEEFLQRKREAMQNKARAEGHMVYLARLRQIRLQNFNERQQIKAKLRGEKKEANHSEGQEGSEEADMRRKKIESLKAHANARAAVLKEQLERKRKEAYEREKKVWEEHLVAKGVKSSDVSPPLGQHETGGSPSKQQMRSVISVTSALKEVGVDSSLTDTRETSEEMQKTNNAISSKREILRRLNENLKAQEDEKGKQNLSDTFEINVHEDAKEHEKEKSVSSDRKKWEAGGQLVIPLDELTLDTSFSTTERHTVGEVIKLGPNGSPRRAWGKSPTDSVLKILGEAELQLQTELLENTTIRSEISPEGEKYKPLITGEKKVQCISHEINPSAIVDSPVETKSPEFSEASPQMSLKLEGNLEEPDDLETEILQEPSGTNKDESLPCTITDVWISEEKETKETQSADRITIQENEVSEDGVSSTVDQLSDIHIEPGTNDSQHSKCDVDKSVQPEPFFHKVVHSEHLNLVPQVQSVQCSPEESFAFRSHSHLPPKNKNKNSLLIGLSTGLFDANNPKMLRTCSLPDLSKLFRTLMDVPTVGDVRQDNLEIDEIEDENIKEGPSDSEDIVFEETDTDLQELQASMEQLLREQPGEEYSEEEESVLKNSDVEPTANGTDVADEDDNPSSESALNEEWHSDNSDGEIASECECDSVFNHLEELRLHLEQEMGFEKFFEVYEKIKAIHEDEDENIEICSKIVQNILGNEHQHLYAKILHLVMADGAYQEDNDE
- Condition description: at 0.1 µM;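 further: mean percent inhibition of NEK1 kinase, from the GSK PKIS (published kinase inhibitor set) screening panel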
Each record here notes measured inhibition.
// return numeric value only (unit: %, not printed)

Which inhibition is reported for this compound? `COc1cc(C=NNc2ncnc3c2cnn3-c2ccccc2)ccc1O`
3.59

How about `NCc1ccc(-c2nc(-c3ccc(Cl)c(O)c3)c(-c3ccncc3)[nH]2)cc1` ?
0.3

How about CC1=C(C(=O)Nc2ccc3[nH]ncc3c2)C(c2ccc3ccccc3c2)CC(=O)N1 (stereo not given) ?
1.66

How about `O=C(Nc1n[nH]c2nc(-c3ccco3)c(Br)cc12)C1CC1` ?
2.9

How about `COc1ccc(-c2nn3ncccc3c2-c2ccnc(Nc3ccc(Cl)c(C(F)(F)F)c3)n2)cc1` ?
1.43

How about `COc1cc(C)c(NC(=O)CN(C)C)cc1Nc1nc(Nc2cccc(F)c2C(N)=O)c2cc[nH]c2n1` ?
1.77

How about `CCc1cccc(NC(=O)Nc2ccc(Oc3ccc4nc(NC(=O)OC)[nH]c4c3)cc2)c1` ?
0.6
